molecular target: PI3Kβ (complex of human p110β and human p85α) (Homo sapiens (Human), UniProt P42338); test: PI3Kβ kinase assay (HTRF based PI3K inhibition assay); details: 10 μM ATP, 10 μM PIP2; average value; read-out: average IC50 in the PI3K beta biochemical assay
Sequence (P42338 whole entry): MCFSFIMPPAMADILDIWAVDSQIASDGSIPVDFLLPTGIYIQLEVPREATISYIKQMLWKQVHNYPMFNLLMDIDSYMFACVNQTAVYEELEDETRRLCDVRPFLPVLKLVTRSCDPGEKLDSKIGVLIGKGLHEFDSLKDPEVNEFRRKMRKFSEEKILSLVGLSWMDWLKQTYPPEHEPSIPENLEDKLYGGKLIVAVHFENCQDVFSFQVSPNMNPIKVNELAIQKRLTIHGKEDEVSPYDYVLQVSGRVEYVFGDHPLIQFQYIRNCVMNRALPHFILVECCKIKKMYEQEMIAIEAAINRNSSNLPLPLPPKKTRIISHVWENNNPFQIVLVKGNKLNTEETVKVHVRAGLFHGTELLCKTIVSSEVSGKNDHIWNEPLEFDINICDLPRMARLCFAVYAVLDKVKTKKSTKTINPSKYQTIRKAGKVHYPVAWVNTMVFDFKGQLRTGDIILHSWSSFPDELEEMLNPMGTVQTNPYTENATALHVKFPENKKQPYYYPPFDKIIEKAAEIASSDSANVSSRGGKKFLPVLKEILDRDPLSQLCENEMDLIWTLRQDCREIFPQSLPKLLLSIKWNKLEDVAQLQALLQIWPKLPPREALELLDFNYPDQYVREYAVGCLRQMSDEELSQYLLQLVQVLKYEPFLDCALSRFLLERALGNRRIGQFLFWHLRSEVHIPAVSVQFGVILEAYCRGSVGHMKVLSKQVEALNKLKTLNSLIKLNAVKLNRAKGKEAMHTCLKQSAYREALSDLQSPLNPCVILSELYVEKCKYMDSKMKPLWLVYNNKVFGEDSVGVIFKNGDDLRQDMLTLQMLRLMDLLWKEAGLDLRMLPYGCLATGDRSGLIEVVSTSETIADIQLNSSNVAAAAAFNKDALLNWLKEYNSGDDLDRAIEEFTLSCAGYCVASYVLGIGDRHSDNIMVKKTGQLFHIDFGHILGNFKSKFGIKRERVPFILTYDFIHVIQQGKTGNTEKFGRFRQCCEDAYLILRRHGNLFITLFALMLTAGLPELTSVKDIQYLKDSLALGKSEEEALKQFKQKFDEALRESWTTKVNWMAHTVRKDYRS
Sequence (P27986 whole entry partner): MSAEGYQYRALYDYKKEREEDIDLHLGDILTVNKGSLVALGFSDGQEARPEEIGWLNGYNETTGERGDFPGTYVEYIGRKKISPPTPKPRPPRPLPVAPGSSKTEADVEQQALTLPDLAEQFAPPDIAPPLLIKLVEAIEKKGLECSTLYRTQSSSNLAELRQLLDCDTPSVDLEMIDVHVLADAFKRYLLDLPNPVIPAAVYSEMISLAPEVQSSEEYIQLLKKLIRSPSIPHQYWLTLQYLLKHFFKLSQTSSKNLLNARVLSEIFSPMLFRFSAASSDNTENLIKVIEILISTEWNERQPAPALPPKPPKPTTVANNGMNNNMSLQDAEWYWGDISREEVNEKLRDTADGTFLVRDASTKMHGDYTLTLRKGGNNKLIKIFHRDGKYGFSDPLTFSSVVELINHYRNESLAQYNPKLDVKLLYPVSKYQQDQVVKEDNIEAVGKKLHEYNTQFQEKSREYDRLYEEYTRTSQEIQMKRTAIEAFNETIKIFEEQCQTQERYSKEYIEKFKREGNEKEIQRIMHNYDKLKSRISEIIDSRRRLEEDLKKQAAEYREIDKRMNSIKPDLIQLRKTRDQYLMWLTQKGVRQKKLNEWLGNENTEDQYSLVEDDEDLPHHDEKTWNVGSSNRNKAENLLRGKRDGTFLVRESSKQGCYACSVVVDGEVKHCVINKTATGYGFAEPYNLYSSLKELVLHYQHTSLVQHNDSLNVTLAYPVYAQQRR
pIC50: −log10 of the molar value.
Each record here notes measured pIC50.
recorded-metric: pIC50

>>> print(df.to_string())
                                   molecule  recorded_metric  value_observed
0  COc1c(OC[C@H](O)CN[C@@H](C)c2ccccc2)ccc2c1N=C(NC(=O)c1cnc(N)nc1)N1CCN=C21            pIC50          > 8.00
1  COc1c(OC[C@@H](O)CN[C@@H](C)c2ccccc2)ccc2c1N=C(NC(=O)c1cnc(N)nc1)N1CCN=C21 [Example 6]            pIC50          > 8.00
2  COc1c(OC[C@@H](O)CN[C@@H](C)c2ccccc2)ccc2c1N=C(NC(=O)c1cnc(N)nc1)N1CCN=C21 (relative stereo) [Example 5]            pIC50          > 8.00

---

molecular target: PI3Kα (complex of human p110α and human p85α) (Homo sapiens (Human), UniProt P42336); assay: PI3Kα kinase assay (HTRF-based PI3K inhibition assay); conditions: 10 μM ATP, 10 μM PIP2; average value; read-out: average IC50 in the PI3K alpha biochemical assay
Sequence (P42336 whole entry): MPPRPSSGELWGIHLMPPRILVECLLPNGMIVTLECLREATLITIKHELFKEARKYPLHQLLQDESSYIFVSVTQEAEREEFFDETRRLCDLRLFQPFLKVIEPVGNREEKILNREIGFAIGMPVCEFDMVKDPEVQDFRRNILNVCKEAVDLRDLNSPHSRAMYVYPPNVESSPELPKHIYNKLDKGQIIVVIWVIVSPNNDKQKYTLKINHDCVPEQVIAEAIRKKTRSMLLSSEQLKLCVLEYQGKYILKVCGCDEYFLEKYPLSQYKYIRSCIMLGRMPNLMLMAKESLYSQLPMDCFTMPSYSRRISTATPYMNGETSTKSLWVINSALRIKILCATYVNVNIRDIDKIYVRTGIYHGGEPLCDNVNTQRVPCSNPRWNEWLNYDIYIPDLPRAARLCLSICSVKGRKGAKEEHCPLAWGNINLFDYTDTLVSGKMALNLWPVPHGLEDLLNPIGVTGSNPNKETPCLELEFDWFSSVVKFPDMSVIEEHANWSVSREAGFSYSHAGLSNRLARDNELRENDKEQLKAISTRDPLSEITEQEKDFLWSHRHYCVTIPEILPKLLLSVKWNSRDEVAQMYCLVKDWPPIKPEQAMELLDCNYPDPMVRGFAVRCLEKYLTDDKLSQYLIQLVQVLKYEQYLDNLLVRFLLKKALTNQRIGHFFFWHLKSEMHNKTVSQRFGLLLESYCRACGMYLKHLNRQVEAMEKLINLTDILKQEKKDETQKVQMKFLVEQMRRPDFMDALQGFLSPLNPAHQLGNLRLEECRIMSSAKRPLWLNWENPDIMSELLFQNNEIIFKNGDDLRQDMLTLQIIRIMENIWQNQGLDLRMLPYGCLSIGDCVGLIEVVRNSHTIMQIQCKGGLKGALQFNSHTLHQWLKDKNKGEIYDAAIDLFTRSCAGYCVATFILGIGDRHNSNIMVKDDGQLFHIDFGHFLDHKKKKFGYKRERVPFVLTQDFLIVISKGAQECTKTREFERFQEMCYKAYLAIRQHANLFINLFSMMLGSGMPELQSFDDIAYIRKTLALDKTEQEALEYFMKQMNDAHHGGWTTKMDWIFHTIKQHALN
Sequence (P27986 whole entry partner): as the sequence (P27986 whole entry partner) above
Each record here notes measured IC50.
recorded-metric: IC50

In [3]: df
Out[3]:
                                   compound  recorded_metric  value_observed
0  COc1c(OC[C@@H](O)CN[C@@H](C)c2ccccc2)ccc2c1N=C(NC(=O)c1cnc(N)nc1)N1CCN=C21 [Example 6]             IC50       < 0.01 µM
1  COc1c(OC[C@@H](O)CN[C@@H](C)c2ccccc2)ccc2c1N=C(NC(=O)c1cnc(N)nc1)N1CCN=C21 (relative stereo) [Example 5]             IC50       < 0.01 µM
2  COc1c(OC[C@H](O)CN[C@@H](C)c2ccccc2)ccc2c1N=C(NC(=O)c1cnc(N)nc1)N1CCN=C21             IC50       < 0.01 µM

These data points were gathered from patent US9675616B2.
